Answer each item with its documented IRF Lucia reporter activity.
tested on: RAW-Dual; assay: IRF Lucia reporter activity, fold change vs agonist alone; cytotoxicity flag (confluency mask): not cytotoxic; higher = enhanced IRF activity; details: agonist: 3'3'-cGAMP (STING) 10 ug/mL
Over roughly 2,900 compounds, “IRF Lucia reporter activity, fold change vs agonist alone” has its median near 0.9; the highest 2% begin near 2.8. Shown is part of a subset that was picked to be rich in the highest values.
Number, no unit, nothing else.

In: Note IRF Lucia reporter activity for the compound shown: O=C(c1cc(-c2cc3c(cc2C(=O)N2Cc4ccccc4CC2CN2CCOCC2)OCO3)n2c1CCCC2)N(c1ccccc1)c1ccc(O)cc1 (stereo not drawn) (library stock concentration (final ~1000-fold dilution): 10 mM)
Out: 0.268

In: Note IRF Lucia reporter activity for the compound shown: N#Cc1ccc(-c2c(-c3ncn[nH]3)sc(N3CCOCC3)c2C#N)c(F)c1 (library stock concentration (final ~1000-fold dilution): 10 mM)
Out: 0.455

In: Note IRF Lucia reporter activity for the compound shown: CC(C)(C)NC(=O)c1cncn1C1CCN(c2ccc(-c3nnc(C(F)(F)F)o3)cn2)CC1 (library stock concentration (final ~1000-fold dilution): 10 mM)
Out: 1.33
